TARGET_OR_TEST_SYSTEM: GDP-bound protein (aa 1-169), containing both G12C and C118A amino acid substitutions (Homo sapiens, UniProt P01116, C118A/G12C)
Sequence (P01116 1-169 isoform P01116-2 G12C/C118A): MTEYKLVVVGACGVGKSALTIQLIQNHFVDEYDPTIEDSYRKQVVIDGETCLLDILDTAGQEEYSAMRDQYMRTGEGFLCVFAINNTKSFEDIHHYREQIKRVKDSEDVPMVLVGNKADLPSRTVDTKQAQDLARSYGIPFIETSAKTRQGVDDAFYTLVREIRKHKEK
EXPERIMENT_DESCRIPTION: Coupled Nucleotide Exchange Assay (SOS-mediated nucleotide exchange, AlphaScreen)
Type: biochemical
STATED_CONDITIONS: 2 hours compound pre-incubation
Each entry below carries its recorded Coupled exchange IC50.
Only the number, expressed in nM, is required.

MOLECULE	Coupled exchange IC50 [nM]
C=CC(=O)N1CCN(c2snc3c(F)c(-c4cc(O)cc5ccccc45)c(Cl)cc23)[C@@H](CF)C1 (racemic) [Example 7-2]	180
C=CC(=O)N1CCN(c2nc(=O)n(-c3ccccc3C(C)C)c3cc(-c4c(O)cccc4F)c(Cl)cc23)[C@@H](C)C1 (single isomer, unassigned) [Example 8-3-2]	340
C=CC(=O)N1CCN(c2snc3c(F)c(-c4c(O)cccc4F)c(Cl)cc23)CC1 [Example 3-6]	1050
C=CC(=O)N1CCN(c2nc(=O)n(-c3ccccc3C(C)C)c3cc(-c4c(O)cccc4F)c(Cl)cc23)CC1 (single isomer, unassigned) [Example 8-1-1]	172

Below: the item to evaluate.
# input Look up Coupled exchange IC50 for this molecule: C=CC(=O)N1CCN(c2nc(=O)n(-c3cnccc3C3CC3)c3cc(-c4c(O)cccc4F)c(Cl)cc23)CC1 [Example 8-5]
# output 400
